- Test system: Plasmodium falciparum
- protocolDescription: Intrinsic antimalarial activity against chloroquine/artemisinin-resistant Plasmodium falciparum ARS272 harboring CRT K76T mutant assessed as reduction in parasite viability at 500 nM
- Assay type: functional, organism-based
Calls of active or inactive are those of the source. The rule behind the calls is not given here.
quantityName: Activity

{"compound": "CSc1ccc2c(c1)C(=O)Cc1ccccc1S2", "testResult": "inactive"}
{"compound": "NC(=O)C(CCN1CCCCC1)(c1ccccc1)c1ccccc1", "testResult": "inactive"}
{"compound": "NCC(CCN1CCC(O)CC1)(c1ccccc1)c1ccccc1", "testResult": "inactive"}
{"compound": "CN1CCN(C2Cc3ccccc3Sc3ccc(Cl)cc32)CC1 (stereo not given) [CLOROTEPINE]", "testResult": "inactive"}

Reported Activity for `NCC(CCN1CCN(c2ccc(F)cc2)CC1)(c1ccccc1)c1ccccc1` : what is it?
inactive
